Study System: GABA-A receptor; alpha-5/beta-3/gamma-2 (Homo sapiens) (UniProt P18507+P28472+P31644)
Assay Name: Positive allosteric modulation of human alpha5beta3gamma2 GABA receptor expressed in Xenopus laevis oocytes at 1 uM
Assay type: cell-based
Test Settings: Oocyte
Measured Metric: Activity (%)
Quick reminder: number only, in %, skip the unit.

Q: Please supply the value of reported Activity for the item Nc1c(C(=O)NC2CC2)nnc2c(-c3ncccn3)c(F)ccc12
Result: 2

Q: Please report the measured Activity for CC1CN(C(=O)c2nnc3c(-c4ncccn4)c(F)ccc3c2N)C1
Result: 0

Q: Let me know recorded Activity for Nc1c(C(=O)N2CC(F)(F)C2)nnc2c(-c3ncccn3)c(F)ccc12 , thanks.
Result: 13

Q: Could you please provide reported Activity for Nc1c(C(=O)N2CCC2)nnc2c(-c3ncccn3)c(F)ccc12 ? Thanks!
Result: 10

Q: Dear colleague, please send me the reported Activity for CN1C(=O)CN=C(c2ccccc2)c2cc(Cl)ccc21 when you can.
Result: 153
